System: LASCPC-01
MEASUREMENT_NOTES: cell viability relative to DMSO control (fraction); higher = less growth inhibition (more viable cells)
EXPERIMENTAL_SETUP: 2 µM; 72 h
Where a name gives a salt, the structure may show the parent alone.
Threshold check on cell viability: strictly below 0.9 is yes (1); on or above 0.9 is no (0).

The examples below pair each entry with its known result.
{"columns": ["COMPOUND", "CATEGORY"],
 "data": [
  ["C=C[C@H]1CN2CC[C@@]3(C(=O)Nc4ccccc43)[C@@H]2C[C@@H]1/C(=C\\OC)C(=O)OC", "yes (1)"],
  ["O=[N+]([O-])c1ccc2nc(N3CCNCC3)ccc2c1 [Quipazine,6-nitro-,maleate]", "no (0)"],
  ["COc1ccc(C(CN(C)C)C2(O)CCCCC2)cc1 (stereo unspecified) [Venlafaxine]", "no (0)"],
  ["CN1C[C@H](C(=O)N[C@]2(C)O[C@@]3(O)[C@@H]4CCCN4C(=O)[C@H](Cc4ccccc4)N3C2=O)C[C@@H]2c3cccc4[nH]cc(c34)C[C@H]21 [Dihydroergotamine methanesulfonate]", "no (0)"],
  ["CN1C[C@H](CNC(=O)OCc2ccccc2)C[C@@H]2c3cccc4c3c(cn4C)C[C@H]21", "no (0)"]
]}

Problem: For the compound COc1ccc(C(CN(C)C)C2(O)CCCCC2)cc1 (stereo unspecified) [Venlafaxine hydrochloride] , is cell viability under 0.9? no (0)

I wonder whether CC(N)Cc1c[nH]c2ccc(O)cc12 (stereo not drawn) [alpha-Methyl-5-hydroxytryptamine maleate] has cell viability below 0.9. Can you tell? no (0)

Just wondering, is cell viability of CC[C@@H](CO)NC(=O)[C@@H]1C=C2c3cccc4c3c(cn4C)C[C@H]2N(C)C1 [Methysergide maleate] below 0.9? no (0)

Does the reported cell viability of COc1cc(N)c(Cl)cc1C(=O)NC1CN2CCC1CC2 (stereo unspecified) [Zacopride hydrochloride] stay below 0.9? yes (1)

---

Test system: LASCPC-01
MEASUREMENT_NOTES: cell viability relative to DMSO control (fraction); higher = less growth inhibition (more viable cells)
EXPERIMENTAL_SETUP: 2 µM; 72 h
Structures can show the parent of a compound that is named as a salt.
QUANTITY_MEASURED: cell viability
Enter a number only.

Some solved cases for reference:
{"columns": ["COMPOUND", "MEASURED"],
 "data": [
  ["N#Cc1ccc(N2CCN(C(=O)COc3ccc4[nH]cc(CCN)c4c3)CC2)cc1 [Donitriptan monohydrochloride]", 1.08],
  ["CN1c2ccccc2C(NCCCCCCC(=O)O)c2ccc(Cl)cc2S1(=O)=O (centres undefined) [Tianeptine sodium]", 0.963],
  ["NCCc1c[nH]c2ccc(C(N)=O)cc12 [5-Carboxamidotryptamine maleate]", 1.1]
]}

Shifting focus to the compound that follows.
Return reported cell viability; argument: O=S1(=O)N(CCN2CC=C(c3c[nH]c4cc(F)ccc34)CC2)c2cccc3c2N1CCC3 0.982

---

Test system: LASCPC-01
MEASUREMENT_NOTES: cell viability relative to DMSO control (fraction); higher = less growth inhibition (more viable cells)
EXPERIMENTAL_SETUP: 2 µM; 72 h
Counter-ions that a name gives are not always drawn.
Sorting guide: entries reporting cell viability beneath 1 go in the Met pile, the rest go in the Not met pile.

Please check: cell viability for CCCN(CCC)C1CCc2cccc(O)c2C1 (stereo not given) , strictly under 1 or not? Met

State whether 1 exceeds cell viability recorded for NCCc1c[nH]c2ccc(O)cc12 [Serotonin hydrochloride] . Met

Find out if reported cell viability for NCCc1c[nH]c2ccccc12 [Tryptamine hydrochloride] is less than 1 Met

Is it true that cell viability reported for COc1ccc2c(c1OC)CN1CCc3cc4c(cc3C1C2)OCO4 (stereo not given) [Tetrahydroberberine THB] is less than 1? Met

I'd appreciate it if you could check whether CN1C(=O)COc2c(C(=O)NC3CN4CCC3CC4)cc(Cl)cc21 (stereo not given) [Azasetron hydrochloride] has cell viability smaller than 1. Not met

Record CC(N)Cc1cccc(C(F)(F)F)c1 (single isomer, unassigned; (+)) [(+)-Norfenfluramine hydrochloride] : is its cell viability strictly below 1? Not met

For C[C@H](N)CN1CCc2ccc(Br)cc21 [VER-3323 hemifumarate salt] , is the recorded cell viability below the cut-off of 1? Not met

Quick check: does CCCN(CCC)[C@@H]1CCc2cccc(O)c2C1 [R-(+)-8-Hydroxy-DPAT hydrobromide] have cell viability under 1? Not met

Bench note: check whether Clc1ccc(C(OCCN2CCCCC2)c2ccccc2)cc1 (stereo not given) [Cloperastine hydrochloride] shows cell viability below 1 Met

Strictly below 1: is that where cell viability of NCCc1c[nH]c2ccccc12 [Tryptamine] sits? Not met

These data points were gathered from the supplement of paper PMC10042075.
